# credit: patent US9376442B2

- MEASURED ON: PDE5A1 (Homo sapiens, UniProt O76074)
- Construct: from tissue; host or cells: human platelets from fresh donor blood (10,000 x g supernatant of sonicated lysate)
- METHOD: Inhibition of type 5 phosphodiesterase (PDE5) activity, modified SPA test with human platelet lysate
- Type: biochemical
- EXPERIMENTAL SETUP: 0.5 μM cGMP, read-out: PDE5A1 inhibitory values [measured as −log IC50 (mol/l)] (converted)
- Description: Method for Measuring Inhibition of the Type 5 Phosphodiesterase (PDE5) Activity: As a source for human PDE5, platelets are used. For that purpose, 150 ml fresh blood from human donors anticoagulated with citrate [final concentration 0.3% (w/v)] is centrifuged at 200 g for 10 min to obtain the so-called platelet-rich-plasma (PRP) as a supernatant. 1/10 volume of ACD solution (85 mM Na3-citrate, 111 mM D-glucose, 71 mM citric acid, pH 4.4) is added to 9/10 volume of PRP. […]
ASSAY READOUT: IC50

Worked cases, IC50 given:
[
  {
    "MOLECULE": "COCC(=O)N1C[C@@H](NC(=O)c2c(C)[nH]c3c(-c4cc(C(F)F)ccc4OCC4CC4)ncnc23)C[C@@H]1C [Example P26]",
    "IC50": "1 to 10 nM"
  },
  {
    "MOLECULE": "COc1cc(-c2ncnc3c(C(=O)N[C@@H]4CCN(C(=O)CO)C[C@H]4O)c(C)[nH]c23)c(OCC2CC2)cc1F (relative stereo) [Example F71]",
    "IC50": "< 1 nM"
  },
  {
    "MOLECULE": "COCC(=O)N1CC[C@@H](NC(=O)c2c(C)[nH]c3c(-c4c(OCC5CC5)ccc5c4OCO5)ncnc23)C1 [Example E15]",
    "IC50": "< 1 nM"
  },
  {
    "MOLECULE": "Cc1ccc(OCC2CC2)c(-c2nc(C)nc3c(C(=O)NC4CCN(C(=O)[C@H](C)O)CC4)c(C)[nH]c23)c1 [Example F107]",
    "IC50": "< 1 nM"
  },
  {
    "MOLECULE": "COCC(=O)N[C@H]1CC[C@H](NC(=O)c2c(C)[nH]c3c(-c4cc(C(F)F)ccc4OCC4CC4)ncnc23)C[C@H]1F (relative stereo) [Example P201]",
    "IC50": "< 1 nM"
  }
]

Field IC50 (PDE5A1 (Homo sapiens, UniProt O76074)), entry COc1cc(OCC2CC2)c(-c2ncnc3c(C(=O)N[C@@H]4CCN(C(=O)CO)C[C@H]4O)c(C)[nH]c23)cc1F (relative stereo) [Example F89] : < 1 nM

Field IC50 (PDE5A1 (Homo sapiens, UniProt O76074)), entry COCC(=O)N1C[C@@H](O)[C@H](NC(=O)c2c(C)[nH]c3c(-c4ccc(OC)cc4OCC4CC4)ncnc23)C1 (relative stereo) [Example E65] : < 1 nM

Field IC50 (PDE5A1 (Homo sapiens, UniProt O76074)), entry CC(=O)N[C@H]1CC[C@H](NC(=O)c2c(C)[nH]c3c(-c4cc(C(F)F)ccc4OCC4CC4)ncnc23)C[C@@H]1F (relative stereo) [Example P209] : < 1 nM
